Assay Explanation: reversal of MRP1-mediated doxorubicin resistance, pilot screen, H69AR cells, doxorubicin co-treatment (AID 601)
Condition Set: H69AR cells, CellTiter-Glo, 72 h; compound alone cytotoxicity; at 10 µM
// assign fulfilled if viability falls strictly below 80%, else not fulfilled (ties count as not fulfilled)

Chemical String: N#Cc1c(N2CCOCC2)nc(N2CCCCC2)c2c1CCN(C1CCCCC1)C2
Group: not fulfilled

Query: # TODO verify viability < 80% strictly for this compound: "O=C(Nc1ccccc1C(=O)N1CCOCC1)c1cccc(S(=O)(=O)N2CCCC2)c1"
Result: not fulfilled

Query: # TODO verify viability < 80% strictly for this compound: "CCN(C(=O)c1c(OC)cccc1OC)c1nnc(-c2cccnc2)s1"
Result: not fulfilled

Query: # TODO verify viability < 80% strictly for this compound: "Cn1c(=O)cc(OCCCC(=O)Nc2ccc3c(c2)OCCO3)c2ccccc21"
Result: fulfilled

###

Assay Explanation: reversal of MRP1-mediated doxorubicin resistance, pilot screen, H69AR cells, doxorubicin co-treatment (AID 601)
Condition Set: H69AR cells + 2 uM doxorubicin, CellTiter-Glo, 72 h; at 10 µM; stronger effect = higher value
Recorded measurements of differential viability (reversal), one per entry
The reply should be a number in %, with the unit left off.

Molecule: O=C(CN(Cc1cccs1)C(=O)CNS(=O)(=O)c1ccccc1)NCc1ccco1
differential viability (reversal) (%): 12.7
//
Molecule: CCCOc1ccc(N2C(=O)CC(NCCCN3CCC(C(N)=O)CC3)C2=O)cc1 (configuration not stated)
differential viability (reversal) (%): -3.32
//
Molecule: COCC(=O)Nc1c(C(=O)Nc2ccccc2OC)oc2ccccc12
differential viability (reversal) (%): -7.66

Query: Would you mind telling me what differential viability (reversal) value was observed for CCCNC(=O)C1CN(S(=O)(=O)c2ccccc2)CCN1S(=O)(=O)c1ccccc1 (configuration not stated) ?
Result: 9.82

Query: Would you mind telling me what differential viability (reversal) value was observed for "O=C(O)c1ccc(-n2nc(C(F)(F)F)c3c2-c2ccoc2CC3)cc1" ?
Result: 9.15

Query: Would you mind telling me what differential viability (reversal) value was observed for "COc1cc(C(=O)Nc2nc(-c3cccs3)cs2)cc(OC)c1OC" ?
Result: -14.2

Query: Would you mind telling me what differential viability (reversal) value was observed for "CC(C)(C)OC(=O)N1CCN(c2ccc(NC(=O)c3cc4ccccc4oc3=O)cc2)CC1" ?
Result: 8.14

Query: Would you mind telling me what differential viability (reversal) value was observed for "O=C(c1ccc(CNS(=O)(=O)c2cccc(C(F)(F)F)c2)cc1)N1CCOCC1" ?
Result: 12

Query: Would you mind telling me what differential viability (reversal) value was observed for O=C1CC(c2ccsc2)c2cc3c(cc2N1)OCCO3 (configuration not stated) ?
Result: -33.3

###

Recorded measurements of viability, one per entry
Assay Explanation: reducers of endogenous Her2 protein level, primary screen, SKBR3 breast tumor cells, AlphaScreen, ATP viability (AID 461);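 also: percent of carrier control wells set as 100% viability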
Condition Set: 18-24 h, measured here: SKBR3 viability, ATP luminescence, at 10 µM
The reply should be a number in %, with the unit left off.

Compound: Oc1ccc(N2CCN(C(c3cccnc3)c3nnnn3Cc3ccccc3)CC2)cc1 (stereo unspecified)
viability [%]: 85

Query: Would you mind telling me what viability value was observed for COc1ccc(Cn2nnnc2C(c2cccnc2)N2CCN(c3ccc(O)cc3)CC2)cc1 (stereo unspecified) ?
Result: 99.5

Query: Would you mind telling me what viability value was observed for CCOC(=O)N1CCC(NC(=O)CCC(=O)N2CC(C)Oc3ccc(Cl)cc32)CC1 (stereo unspecified) ?
Result: 104
